These entries and their values trace back to patent US6043248A.

Each entry below lists one item and its recorded log10 IC50 value.
target: P236L viral reverse transcriptase (Human immunodeficiency virus type 1 group M subtype B, UniProt P04585, P823L); construct: P236L viral reverse transcriptase is obtained by PNAS 90: 4713-4717 (1993); made in house; test: inhibition of viral reverse transcriptase (P236L), cell free assay; format: biochemical; conditions: IC50 (Table I, P236L), 30 minutes at 37° C.
Where a name gives a salt, the structure may show the parent alone.
Please be aware that the numbers have been log10-transformed from IC50 in µM.

Some solved cases for reference:
CC(Sc1nc(N)cc(Cl)n1)c1cc(C(C)(C)C)ccn1 (stereo not shown) : -1.00
CCc1ccnc([C@@H](C)Sc2nc(N)cc(Cl)n2)c1 : -1.10
CN1CCN(C(=O)/C=C/CSc2nc(N)cc(Cl)n2)CC1 : 1.70

*Q* For the molecule shown here, Cc1ccnc(C(C)Sc2nc(N)cc(Cl)n2)c1 (stereo not shown) [Example 215, hydrochloride] , give the reported log10 IC50.
*A* -1.48

*Q* For the molecule shown here, Cc1cc2cc(C(C)Sc3nc(N)cc(C(F)(F)F)n3)nc(Cl)c2o1 (stereo not shown) , give the reported log10 IC50.
*A* -0.48

*Q* For the molecule shown here, "CNc1cc(C#N)nc(SCc2ccc3ccccc3c2)n1" , give the reported log10 IC50.
*A* 1.70

*Q* For the molecule shown here, "CCc1ccnc([C@H](C)Sc2nc(N)cc(Cl)n2)c1" , give the reported log10 IC50.
*A* -1.77

*Q* For the molecule shown here, CC(Sc1nc(N)cc(Cl)n1)c1cc(C#N)ccn1 (stereo not shown) , give the reported log10 IC50.
*A* -0.75

====

biological target: P236L viral reverse transcriptase (Human immunodeficiency virus type 1 group M subtype B, UniProt P04585, P823L); construct: P236L viral reverse transcriptase is obtained by PNAS 90: 4713-4717 (1993); made in house; test: inhibition of viral reverse transcriptase (P236L), cell free assay; format: biochemical; conditions: 30 minutes at 37° C., read-out: IC50 (Table I, P236L)
So basically, if IC50 comes in under 500 nM it's class 1, and if it's 500 nM or more it's class 0.

Consider the worked cases shown below.
CCc1ccc(CSc2nc(N)cc(Cl)n2)nc1 : class 1
COc1c(N)nc(SCc2ccc3ccccc3c2)nc1Cl : class 0
Nc1cc(Cl)nc([S+]([O-])Cc2ccc3ccccc3c2)n1 (stereo not shown) : class 0
Nc1cc(Cl)nc(SCc2ccc3cccnc3c2)n1 : class 0

*Q* I'd appreciate it if you could check whether "Nc1cc(Cl)nc(SCc2cccc3ncccc23)n1" has IC50 smaller than 500 nM.
*A* class 1

====

biological target: P236L viral reverse transcriptase (Human immunodeficiency virus type 1 group M subtype B, UniProt P04585, P823L); construct: P236L viral reverse transcriptase is obtained by PNAS 90: 4713-4717 (1993); made in house; test: inhibition of viral reverse transcriptase (P236L), cell free assay; assay type: biochemical; settings: 30 minutes at 37° C., read-out: IC50 (Table I, P236L)
Measured quantity: pIC50
To interpret pIC50, take it as minus log10 of a concentration measured in moles per litre.

Nc1cc(Cl)nc(SCc2cccc(F)c2)n1 [Example 41] : 6.70

*Q* For the molecule shown here, Cc1ccc(CSc2nc(N)cc(Cl)n2)nc1 [Example 118] , give the reported pIC50.
*A* 7.15

*Q* For the molecule shown here, Cc1cccnc1CSc1nc(N)cc(Cl)n1 [Example 117] , give the reported pIC50.
*A* 5.98

*Q* For the molecule shown here, Nc1cc(Cl)nc(SCc2cc3c(cc2Cl)OCO3)n1 [Example 62] , give the reported pIC50.
*A* 7.70

*Q* For the molecule shown here, CC(C)Oc1cccc(CSc2nc(N)cc(Cl)n2)c1 [Example 109] , give the reported pIC50.
*A* 5.70

*Q* For the molecule shown here, Nc1ccnc(SCc2cccc(Br)c2)n1 [Example 95] , give the reported pIC50.
*A* 6.00

*Q* For the molecule shown here, Nc1cc(Cl)nc(SCc2cc(Br)cc(Br)c2)n1 [Example 52] , give the reported pIC50.
*A* 6.70

*Q* For the molecule shown here, Nc1cc(Cl)nc(SCC2=CCc3ccccc32)n1 [Example 155] , give the reported pIC50.
*A* 5.30

*Q* For the molecule shown here, Nc1cc(Cl)nc(SCC2=CCCc3ccccc32)n1 [Example 187] , give the reported pIC50.
*A* 6.22

*Q* For the molecule shown here, CC(C)(O)c1ccnc(CSc2nc(N)cc(Cl)n2)c1 [Example 135] , give the reported pIC50.
*A* 7.00

*Q* For the molecule shown here, Nc1cc(Cl)nc(SCc2ccccc2)n1 [Example 34A] , give the reported pIC50.
*A* 5.70
